Reported TGI values for the following compounds.
# System: BT-549 breast
# Experiment: NCI tumour cell line growth inhibition, 48 h

The following compounds have reported results that may help.
{"Compound": "CC(=Nc1ccc(S(N)(=O)=O)cc1)c1c(O)[nH]c2ccccc12", "Tested target": "BT-549 breast", "TGI": "> 25 µM"}
{"Compound": "COc1nc2c(N3CCCC3)nc(N3CCNCC3)nc2nc1NCc1ccccc1", "Tested target": "BT-549 breast", "TGI": "4.01 µM"}
{"Compound": "CC1=NNC(=O)C1C1CC(c2c[nH]c3ccccc23)=NN=C1Cl (centres undefined)", "Tested target": "BT-549 breast", "TGI": "> 100 µM"}
{"Compound": "COc1ccc(NC(C)c2ccncc2)cc1 (centres undefined)", "Tested target": "BT-549 breast", "TGI": "> 100 µM"}
{"Compound": "C(=C\\c1ccccc1)/COc1ccccc1C(N1CCOCC1)n1nc2ccccc2n1 (centres undefined)", "Tested target": "BT-549 breast", "TGI": "26.4 µM"}

Lookup: Tell me measured TGI for Cc1cccc(N=Nc2ccc(N=Nc3c(O)ccc4ccccc34)cc2C)c1 please.
Found: > 100 µM

Lookup: Tell me measured TGI for Cc1cc2c(cc1Cl)S/C(=C/C(=O)O)C(Nc1cccc3nsnc13)=NS2(=O)=O please.
Found: 1.38 µM

Lookup: Tell me measured TGI for CCOC(=O)C1=CC(C)(C(=O)OCC)Nc2c(nc(N)[nH]c2=O)N1 (centres undefined) please.
Found: > 10 µM

Lookup: Tell me measured TGI for C[C@H]1[C@H](C)CC[C@]2(C(=O)OC3OC(CO)C(O)C(O)C3O)CC[C@]3(C)C(=CC[C@@H]4[C@@]5(C)C[C@H]6OC(=O)c7cc(O)c(O)c(O)c7-c7c(cc(O)c(O)c7O)C(=O)O[C@@H]6C(CO)(CO)[C@@H]5CC[C@]43C)[C@H]12 (some centres undefined) please.
Found: > 100 µM

* * *

# Tested on: NCI-H522 lung
# Experiment: NCI tumour cell line growth inhibition, 48 h
Assay metric: TGI (µM)
Write the number in µM without appending the unit.

{"Compound": "CC(C)[O-].CC(C)[O-].O=c1cccccc1[O-].O=c1cccccc1[O-].[Ti+4]", "Uom": "µM", "TGI": 62.8}
{"Compound": "COc1nc2c(N3CCCC3)nc(N3CCNCC3)nc2nc1NCc1ccccc1", "Uom": "µM", "TGI": 2.54}
{"Compound": "O=C1c2cccc(O)c2C(=O)c2c(O)cc(CO)cc21", "Uom": "µM", "TGI": 64.6}
{"Compound": "CCN(CCCl)c1cc(CN(C)C)cc(NC(=O)c2ccc(C(=O)Nc3cccc(CN(C)C)c3)cc2)c1", "Uom": "µM", "TGI": 0.042}
{"Compound": "COc1ccc(/C=N/n2c(C)nc3c(sc(=S)n3-c3ccccc3)c2=O)cc1", "Uom": "µM", "TGI": 46.4}

Lookup: Tell me measured TGI for N#Cc1c(-c2ccccc2)c2c([nH]c1=O)-c1cc([N+](=O)[O-])ccc1CCC2 please.
Found: 97.8

Lookup: Tell me measured TGI for O=S1CSSC1 please.
Found: 25.9

Lookup: Tell me measured TGI for CCOC(OC1=C(C#N)CCCC1)C(CC)[Se]c1ccccc1 (configuration not stated) please.
Found: 29

Lookup: Tell me measured TGI for CN(C)c1cccc2c1C(=O)C=CC21c2ccc(N(C)C)c3c(N(C)C)ccc(c23)C(c2ccccc2)C1c1ccccc1 (configuration not stated) please.
Found: 47.7

Lookup: Tell me measured TGI for Nc1cc(-c2ccc(Cl)cc2)nn1-c1nnc(/C=C/c2ccco2)c(=O)[nH]1 please.
Found: 40.3

Lookup: Tell me measured TGI for N#CC(C#N)=c1c2nsnc2c(=C(C#N)C#N)c2nsnc12 please.
Found: 3.51

Lookup: Tell me measured TGI for O=C(/C=C/c1cccc(O)c1)c1cccc(-n2cc(-c3ccc4ccccc4c3)[nH]c2=O)c1 please.
Found: 2.9

Lookup: Tell me measured TGI for C[C@]12C/C(=C/O)C(=O)C(O)=C1CC[C@@H]1C2CC[C@@]2(C)C1CC[C@@H]2O (some centres not stated) please.
Found: 32

Lookup: Tell me measured TGI for CC(C)(C)c1ccc(OC2CCO2)cc1 (configuration not stated) please.
Found: 52.5

Lookup: Tell me measured TGI for C[C@H]1[C@H](C)CC[C@]2(C(=O)OC3OC(CO)C(O)C(O)C3O)CC[C@]3(C)C(=CC[C@@H]4[C@@]5(C)C[C@H]6OC(=O)c7cc(O)c(O)c(O)c7-c7c(cc(O)c(O)c7O)C(=O)O[C@@H]6C(CO)(CO)[C@@H]5CC[C@]43C)[C@H]12 (some centres not stated) please.
Found: 38.6

Lookup: Tell me measured TGI for Cc1ccc(NC(=O)/C(Cc2nc3ccc([N+](=O)[O-])cc3[nH]c2=O)=N\NC(=O)C[n+]2ccccc2)c(C)c1 please.
Found: 61.6

Lookup: Tell me measured TGI for COc1cccc2c(=O)c3c(sc12)c(NCCCNCCO)nc1ccccc13 please.
Found: 3.45
